# IC50 listing for each entry below
Test system: mouse brain cells
Assay: Inhibitory effect on ROS production in brain cells (DCF-DA, NMDA-induced)
Assay type: cell-based
Conditions: 24 h; dose suppressing 50% of production of reactive oxygen compared to control; mouse brain cells; read-out: ROS inhibitory effect ID50
Output spec: scalar in µg/mL, unitless text.

Below are worked cases with known answers.
{"input_smiles": "O=C1CCC(=O)N1CCCNCCCCNCCCn1c(=O)[nH]c2ccccc2c1=O", "IC50 (µg/mL)": 138}
{"input_smiles": "COCC(=O)N(CCCCNCCCn1c(=O)[nH]c2ccccc2c1=O)CCCn1c(=O)[nH]c2ccccc2c1=O", "IC50 (µg/mL)": 136}

Can you look up the measured IC50 of NCCCNCCCCNCCCn1c(=O)[nH]c2ccccc2c1=O for me?
73

Need IC50 of CC(=O)N(CCCCNCCCn1c(=O)[nH]c2ccccc2c1=O)CCCn1c(=O)[nH]c2ccccc2c1=O , thanks.
108

---

Test system: mixed culture of nerve cells-glial cells
Assay: Protecting effect on NMDA-induced nerve cell death (LDH release)
Type: cell-based, ICR mouse
Settings: 2 μg/ml compound; 100 μM NMDA; LDH release after 24 hours
value_kind: Inhibitory effect of cell death by NMDA-induced excitable neurotoxicity (%)
Lab book: enter the figure in %, no units written.

{"input_smiles": "CS(=O)(=O)N(CCCCNCCCn1c(=O)[nH]c2ccccc2c1=O)CCCn1c(=O)[nH]c2ccccc2c1=O", "unit_symbol": "%", "value_measured": 2.6}
{"input_smiles": "O=C(NCCCNCCCCNCCCn1c(=O)[nH]c2ccccc2c1=O)c1ccc(O)cc1", "unit_symbol": "%", "value_measured": 28.2}
{"input_smiles": "CC(=O)N(CCCCNCCCNC(=O)c1ccc(O)cc1)CCCn1c(=O)[nH]c2ccccc2c1=O", "unit_symbol": "%", "value_measured": 42.5}
{"input_smiles": "Cc1ccc(S(=O)(=O)N(CCCCNCCCn2c(=O)[nH]c3ccccc3c2=O)CCCn2c(=O)[nH]c3ccccc3c2=O)cc1", "unit_symbol": "%", "value_measured": 34.5}
{"input_smiles": "O=C(N(CCCCNCCCn1c(=O)[nH]c2ccccc2c1=O)CCCn1c(=O)[nH]c2ccccc2c1=O)C(F)(F)F", "unit_symbol": "%", "value_measured": 18.4}
{"input_smiles": "O=C1c2ccccc2C(=O)N1CCCNCCCCNCCCn1c(=O)[nH]c2ccccc2c1=O", "unit_symbol": "%", "value_measured": 22.4}

Please find the next molecule below.
Value lookup for Inhibitory effect of cell death by NMDA-induced excitable neurotoxicity; key = O=c1[nH]c2ccccc2c(=O)n1CCCCNCCCn1c(=O)[nH]c2ccccc2c1=O
39.7

---

Tested on: pentylentetrazole (PTZ)-induced convulsion
Test: Anti-convulsant effect, pentylentetrazole (PTZ) test
Format: in vivo
Conditions: 10 mg/kg intraperitoneally; PTZ 80 mg/kg subcutaneously; negative control 46.7 ± 3.3
Where Duration of convulsion equals or exceeds 30 min, the correct label is Satisfied; where it does not, the label is Not satisfied.

// known answers, use as guide
{"compound": "O=C1c2ccccc2C(=O)N1CCCNCCCCNCCCn1c(=O)[nH]c2ccccc2c1=O [Compound 28]", "classification": "Not satisfied"}
{"compound": "Cn1c(=O)n(CCCN(CCCCN(CCCn2c(=O)c3ccccc3n(C)c2=O)C(=O)OC(C)(C)C)C(=O)OC(C)(C)C)c(=O)c2ccccc21 [Compound 26]", "classification": "Satisfied"}
{"compound": "O=c1[nH]c2ccccc2c(=O)n1CCCNCCCNCCCn1c(=O)[nH]c2ccccc2c1=O [Compound 24]", "classification": "Satisfied"}

# bool: Duration of convulsion of O=C1CCC(=O)N1CCCNCCCCNCCCn1c(=O)[nH]c2ccccc2c1=O [Compound 42] >= 30 min
Not satisfied

In plain terms: is recorded Duration of convulsion at least 30 min for O=C(OCc1ccccc1)N(CCCCNCCCn1c(=O)[nH]c2ccccc2c1=O)CCCn1c(=O)[nH]c2ccccc2c1=O [Compound 39] ?
Not satisfied
